Origin of the recorded values: PubChem BioAssay (EPA / NIEHS)

molecular target: Agonist Androgen Response Element (ARE), AR (gene 367) (UniProt P10275); test: OT_AR_ARELUC_AG_1440: Odyssey Thera (OT) 24-hour CHO-K1 Luciferase Assay for Agonist Androgen Response Element (ARE) (AID 2283379)
Sequence (P10275 whole entry, looked up): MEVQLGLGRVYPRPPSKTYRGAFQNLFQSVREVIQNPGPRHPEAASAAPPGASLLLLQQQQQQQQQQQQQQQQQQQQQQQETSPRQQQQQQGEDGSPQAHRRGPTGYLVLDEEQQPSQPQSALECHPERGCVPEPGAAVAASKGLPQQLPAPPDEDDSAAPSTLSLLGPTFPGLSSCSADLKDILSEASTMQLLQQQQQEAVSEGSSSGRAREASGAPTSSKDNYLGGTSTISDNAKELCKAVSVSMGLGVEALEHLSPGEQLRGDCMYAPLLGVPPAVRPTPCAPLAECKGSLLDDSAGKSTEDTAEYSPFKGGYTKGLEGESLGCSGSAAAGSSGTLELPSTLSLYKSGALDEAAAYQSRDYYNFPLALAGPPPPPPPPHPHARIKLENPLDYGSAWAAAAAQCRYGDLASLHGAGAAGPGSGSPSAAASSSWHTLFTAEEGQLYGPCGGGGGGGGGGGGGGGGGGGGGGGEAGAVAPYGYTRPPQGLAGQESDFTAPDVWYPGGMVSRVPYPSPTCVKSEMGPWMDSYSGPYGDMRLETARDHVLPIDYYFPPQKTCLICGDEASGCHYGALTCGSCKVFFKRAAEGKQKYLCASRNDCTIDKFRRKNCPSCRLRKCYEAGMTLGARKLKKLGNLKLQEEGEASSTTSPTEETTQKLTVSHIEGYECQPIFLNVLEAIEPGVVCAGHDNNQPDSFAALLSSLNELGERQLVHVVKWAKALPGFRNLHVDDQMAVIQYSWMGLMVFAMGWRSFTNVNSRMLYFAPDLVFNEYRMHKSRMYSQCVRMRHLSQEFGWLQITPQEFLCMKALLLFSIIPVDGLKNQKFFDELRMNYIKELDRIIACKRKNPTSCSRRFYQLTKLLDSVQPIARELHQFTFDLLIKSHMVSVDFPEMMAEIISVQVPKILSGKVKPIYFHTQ
Results filed as inconclusive are left out. Activity calls are given as the source filed them. Rule for the calls: active = hit-call score of the fitted dose curve at least 0.9, where 1 is the maximum; inconclusive = response in the unintended direction; inactive = score below 0.9.
Hi there, use one of these labels in your reply, thanks! Y for active, N for inactive

{"molecule": "CC(C)CCCCCCc1ccc(OCCOCCO)cc1", "assay_system": "Agonist Androgen Response Element (ARE), AR (gene 367) (UniProt P10275)", "group": "Y"}
{"molecule": "CCCCCCCCSCCO", "assay_system": "Agonist Androgen Response Element (ARE), AR (gene 367) (UniProt P10275)", "group": "N"}
{"molecule": "CCCCCCCCCCCCCC(=O)OCC(O)CO (stereo unspecified)", "assay_system": "Agonist Androgen Response Element (ARE), AR (gene 367) (UniProt P10275)", "group": "N"}
{"molecule": "CCc1cc(Cc2cc(CC)cc(C(C)(C)C)c2O)c(O)c(C(C)(C)C)c1", "assay_system": "Agonist Androgen Response Element (ARE), AR (gene 367) (UniProt P10275)", "group": "N"}
{"molecule": "CC(=O)O[C@H]1C[C@@H]2CC[C@@]1(C)C2(C)C", "assay_system": "Agonist Androgen Response Element (ARE), AR (gene 367) (UniProt P10275)", "group": "Y"}

Query: # outcome recorded in this test, key = C[C@H]1O[C@@H](O[C@H]2[C@@H](O)C[C@H](O[C@H]3[C@@H](O)C[C@H](O[C@H]4CC[C@@]5(C)[C@H](CC[C@@H]6[C@@H]5C[C@@H](O)[C@]5(C)[C@@H](C7=CC(=O)OC7)CC[C@]65O)C4)O[C@@H]3C)O[C@@H]2C)C[C@H](O)[C@@H]1O
Result: N
